# reported pIC50; entries follow
system: Platelet; assay: Inhibition of arachidonic acid-induced platelet aggregation in human platelet rich plasma incubated 1 min prior arachidonic acid induction measured after 3 mins by Born's method using aggregometer; type: functional, cell-free; settings: Homo sapiens, Platelet, Plasma
pIC50: −log10 of the molar value.
assayReadout: pIC50

>>> datavalue("CCSc1nc(NCCc2ccccc2)c2ncn([C@@H]3O[C@H](CO)[C@@H](O)[C@H]3O)c2n1")
4.52
>>> datavalue("CSc1nc(NCCc2ccccc2)c2ncn([C@@H]3O[C@H](CO)[C@@H](O)[C@H]3O)c2n1")
5.52
>>> datavalue("CCCSc1nc(NCCc2ccccc2)c2ncn([C@@H]3O[C@H](CO)[C@@H](O)[C@H]3O)c2n1")
4.36

* * *

test system: Platelet; experiment: Inhibition of ADP-induced platelet aggregation in human platelet rich plasma incubated 1 min prior ADP induction measured after 3 mins by Born's method using aggregometer; type: functional, cell-free
# reported inhibition (INH); entries follow
assayReadout: inhibition (INH)

>>> datavalue("CCCCSc1nc(NCCc2ccccc2)c2ncn([C@@H]3O[C@H](CO)[C@@H](O)[C@H]3O)c2n1")
">50%"
>>> datavalue("COc1ccc(CCNc2nc(SC)nc3c2ncn3[C@@H]2O[C@H](CO)[C@@H](O)[C@H]2O)cc1")
">50%"
>>> datavalue("CCCCSc1nc(NCc2ccccc2)c2ncn([C@@H]3O[C@H](CO)[C@@H](O)[C@H]3O)c2n1")
">50%"

Values compiled from ChEMBL document CHEMBL2034940.
